# System: cMYC19 (DNA, G4) AGGGTGGGGAGGGTGGGGA
# testDescription: SPR steady state, two-site fit
# conditionParameters: 50 mM KCl; 10 mM HEPES, 3 mM EDTA, pH 7.3; site 1 of 2
K1 values by entry
State the answer as a number, implicitly in M⁻¹.

Completed entries (count: 5):
structureString | K1, M⁻¹
CC1(C)C(/C=C/C=C2/N(CCC[N+](C)(C)C)c3ccc(C(=O)O)cc3C2(C)C)=[N+](CCC[N+](C)(C)C)c2ccc(C(=O)O)cc21 | 5e+06
CC1(C)C(/C=C/C=C2/N(CCCc3ccccc3)c3ccccc3C2(C)C)=[N+](CCCc2ccccc2)c2ccccc21 | 1.2e+06
CC1(C)C(/C=C/C=C2/N(CCC[N+](C)(C)C)c3ccccc3C2(C)C)=[N+](CCC[N+](C)(C)C)c2ccccc21 | 3.8e+06
CC1(C)C(/C=C/C=C2/N(CCC[N+](C)(C)C)c3ccc(I)cc3C2(C)C)=[N+](CCC[N+](C)(C)C)c2ccc(I)cc21 | 7.8e+06
CC1(C)C(/C=C/C=C2/N(CCC[N+](C)(C)C)c3ccc(Br)cc3C2(C)C)=[N+](CCC[N+](C)(C)C)c2ccc(Br)cc21 | 1.2e+07

Fill in the blank: the reported K1 of CC1(C)C(/C=C/C=C2/N(CCC[N+](C)(C)C)c3ccc(Cl)cc3C2(C)C)=[N+](CCC[N+](C)(C)C)c2ccc(Cl)cc21 is ____.
8.4e+06

Fill in the blank: the reported K1 of CC1(C)C(/C=C/C=C2/N(CCC[N+](C)(C)C)c3ccc(F)cc3C2(C)C)=[N+](CCC[N+](C)(C)C)c2ccc(F)cc21 is ____.
6.3e+06

Fill in the blank: the reported K1 of CC1(C)C(/C=C/C=C2/N(CCC[N+](C)(C)C)c3ccc(S(=O)(=O)O)cc3C2(C)C)=[N+](CCC[N+](C)(C)C)c2ccc(S(=O)(=O)O)cc21 is ____.
570000
